Each record here notes measured YAP1 (% UTC).
Tested on: Yap1 mRNA
measurementDescription: Antisense inhibition of human Yap1 in A-431 cells by cEt gapmers, single dose (Example 1, RTS4814)
Type: cell-based
assayContext: Table 1; A-431 cells, free uptake, 2,000 nM, approximately 48 hours, RTS4814; Yap1 mRNA relative to untreated control cells
Strand notation (5' to 3'): a small letter for the sugar, then the base; units joined by * are phosphorothioate-linked, units joined directly phosphodiester-linked; [ ] holds rarer units or linkages, { } end groups; capitals alone tell only the bases. k = constrained ethyl (cEt); [5mC] = 5-methylcytosine; d = 2'-deoxy (DNA)

| substance | readoutUnit | YAP1 (% UTC) |
| --- | --- | --- |
| 715475 (antisense kA*kG*k[5mC]*dT*dT*dT*d[5mC]*dT*dT*dT*dA*dT*d[5mC]*kT*kA*kG) [Compound 715475] | % UTC | 103 |
| 715601 (antisense kA*kG*kA*dA*dT*dT*d[5mC]*d[5mC]*d[5mC]*dA*dA*dG*d[5mC]*kT*kA*k[5mC]) [Compound 715601] | % UTC | 106 |
| 715631 (antisense kA*kT*kA*dA*dG*dA*dG*d[5mC]*d[5mC]*dT*dA*d[5mC]*d[5mC]*kT*kG*kA) [Compound 715631] | % UTC | 134 |

----------
Test system: Yap1 mRNA
measurementDescription: Dose-dependent inhibition of human Yap1 in A-431 cells (Example 6, 5,000 cells per well, RTS4814)
Assay type: cell-based
assayContext: Table 55; 4000 nM, free uptake, A-431 cells 5,000 cells per well, 48 hours, RTS4814
Strand notation (5' to 3'): a small letter for the sugar, then the base; units joined by * are phosphorothioate-linked, units joined directly phosphodiester-linked; [ ] holds rarer units or linkages, { } end groups; capitals alone tell only the bases. k = constrained ethyl (cEt); [5mC] = 5-methylcytosine; d = 2'-deoxy (DNA)

| substance | systemTested | Yap1 mRNA, % UTC / % UTC |
| --- | --- | --- |
| 716524 (antisense kA*k[5mC]*kT*dG*dA*dG*dG*dT*dA*dT*dA*dA*d[5mC]*kT*kG*kG) [compound 716524] | Yap1 mRNA | 62 |
| 716543 (antisense kT*kA*kT*dT*dT*dG*dT*dA*dG*d[5mC]*dA*dA*dA*kG*kT*k[5mC]) [compound 716543] | Yap1 mRNA | 64 |
| 715478 (kA*k[5mC]*k[5mC]*dA*dT*dT*dA*dT*dT*dA*d[5mC]*dT*d[5mC]*k[5mC]*kT*kG; antisense) [compound 715478] | Yap1 mRNA | 18 |

----------
Test system: Yap1 mRNA
measurementDescription: Inhibition of human Yap1 mRNA in SNU449 hepatocellular carcinoma xenograft tumors (Example 26)
Format: in vivo
assayContext: SNU449 xenografts in NSG mice, 50 mg/kg twice weekly for five days, relative to PBS treated animals
Strand notation (5' to 3'): a small letter for the sugar, then the base; units joined by * are phosphorothioate-linked, units joined directly phosphodiester-linked; [ ] holds rarer units or linkages, { } end groups; capitals alone tell only the bases. e = 2'-O-(2-methoxyethyl) (MOE); k = constrained ethyl (cEt); [5mC] = 5-methylcytosine; d = 2'-deoxy (DNA); m = 2'-O-methyl
Label t when Yap1 mRNA in tumors, % control is at or above 60 % control; anything below gets f.

| substance | categoryLabel |
| --- | --- |
| 1198673 (kG*kA*dT*dT*dT*dA*dG*dG*dA*dT*dG*d[5mC]*kA*eT*kG*eG; antisense) [compound 1198673] | f |
| 1198831 (CACTTTTACATTAGGA; chemically modified gapmer, further chemistry not given here) [compound 1198831] | t |
| 1198615 (kT*kT*kA*dA*dA*dG*dT*dG*dT*dA*dT*dG*kT*k[5mC]*kA*eG) [compound 1198615] | t |
| 1198439 (AGTGTATGTCAGAAGA; sugar, 5-methylcytosine, phosphorothioate modifications, further chemistry not given here) [compound 1198439] | f |
| 1198605 (GTAATATTGCAATCTG; modified gapmer, further chemistry not given here) [compound 1198605] | f |
| 1076453 (GTAATATTGCAATCTG; 3-10-3 cEt gapmer, further chemistry not given here) [compound 1076453] | f |
| 1074755 (k[5mC]*kA*k[5mC]*dT*dT*dT*dT*dA*d[5mC]*dA*dT*dT*dA*kG*kG*kA; antisense) [compound 1074755] | t |
| 1198440 (AAGTGTATGTCAGAAG; cEt, 2'-MOE, 5-methylcytosine, phosphorothioate modifications, further chemistry not given here) [compound 1198440] | f |
| 1197269 (kT*kA*kA*dA*mG*dT*dG*dT*dA*dT*dG*dT*d[5mC]*kA*kG*kA; antisense) [compound 1197269] | f |
| 958499 (ATTAGAGTATGTGGCA; 3-10-3 cEt gapmer, further chemistry not given here) [compound 958499] | f |
| 1198872 (TGTATGTCAGAAGAGT; chemically modified gapmer, further chemistry not given here) [compound 1198872] | f |
| 1198641 (kA*kT*dT*dA*dG*dA*dG*dT*dA*dT*dG*dT*kG*eG*k[5mC]*eA; antisense) [compound 1198641] | t |
| 1197270 (TTAAAGTGTATGTCAG; cEt gapmer with 2'-OMe nucleoside, phosphorothioate, further chemistry not given here) [compound 1197270] | f |
| 1198501 (kG*kA*dT*dT*dT*dA*dG*dG*dA*dT*dG*e[5mC]*kA*eT*kG*eG; antisense) [compound 1198501] | f |
| 1198728 (TATTAGAGTATGTGGC; modified gapmer, further chemistry not given here) [compound 1198728] | t |
